# System: hiPSC-CMs (iCell-Cardiomyocytes^2)
# experimental-setup: 0.1 µM, 2h
# Protocol: Cells were seeded according to the instructions of the cell provider, in fibronectin-coated 48-well MEA plates (Axion Cytoview Plates, M768-tMEA-48B) at a density suited to form a monolayer (i.e., 50 K/well) and maintained in culture in a stage incubator (37°C, 5% CO2). […] The potential presence of various arrhythmic events was evaluated and noted during the data analysis. […]
Listing of entries alongside the reported Beating below threshold, number of observations/total well numbers.

{"structure-as-smiles": "COc1cc2c(Nc3ccc(Br)cc3F)ncnc2cc1OCC1CCN(C)CC1", "obs-value": "0/5"}

Indicate the recorded Beating below threshold, number of observations/total well numbers value for this compound: `N=C(N)c1ccc(OCCCCCOc2ccc(C(=N)N)cc2)cc1`
0/6

Indicate the recorded Beating below threshold, number of observations/total well numbers value for this compound: `COc1cccc2c1C(=O)c1c(O)c3c(c(O)c1C2=O)C[C@@](O)(C(=O)CO)C[C@@H]3O[C@H]1C[C@H](N)[C@H](O)[C@H](C)O1`
0/5

Indicate the recorded Beating below threshold, number of observations/total well numbers value for this compound: `Cc1cn(-c2cc(NC(=O)c3ccc(C)c(Nc4nccc(-c5cccnc5)n4)c3)cc(C(F)(F)F)c2)cn1`
0/5

----------
# Test system: hiPSC-CMs (iCell-Cardiomyocytes^2)
# experimental-setup: 0.3 µM, 2h
Listing of entries alongside the reported FPD (field-potential duration), % change from baseline.
Report the figure in % without appending any unit label.

Reference set (3 entries):
{"compound": "O=C(O)COCCN1CCN(C(c2ccccc2)c2ccc(Cl)cc2)CC1 (centres unmarked)", "u": "%", "obs-value": 2.9}
{"compound": "C#Cc1cccc(Nc2ncnc3cc(OCCOC)c(OCCOC)cc23)c1", "u": "%", "obs-value": 0.6}
{"compound": "Cc1cn(-c2cc(NC(=O)c3ccc(C)c(Nc4nccc(-c5cccnc5)n4)c3)cc(C(F)(F)F)c2)cn1", "u": "%", "obs-value": 22.4}

Indicate the recorded FPD (field-potential duration), % change from baseline value for this compound: COc1nc(N)nc2c1ncn2[C@@H]1O[C@H](COP(=O)(N[C@@H](C)C(=O)OCC(C)(C)C)Oc2cccc3ccccc23)[C@@H](O)[C@@]1(C)O (some centres unmarked)
0.5

Indicate the recorded FPD (field-potential duration), % change from baseline value for this compound: `CCN(CC)CCNC(=O)c1c(C)[nH]c(/C=C2\C(=O)Nc3ccc(F)cc32)c1C`
32.5

Indicate the recorded FPD (field-potential duration), % change from baseline value for this compound: `N=C(N)c1ccc(OCCCCCOc2ccc(C(=N)N)cc2)cc1`
9.7

Indicate the recorded FPD (field-potential duration), % change from baseline value for this compound: `COc1cccc2c1C(=O)c1c(O)c3c(c(O)c1C2=O)C[C@@](O)(C(=O)CO)C[C@@H]3O[C@H]1C[C@H](N)[C@H](O)[C@H](C)O1`
2.2

Indicate the recorded FPD (field-potential duration), % change from baseline value for this compound: `CC(C)(Sc1cc(C(C)(C)C)c(O)c(C(C)(C)C)c1)Sc1cc(C(C)(C)C)c(O)c(C(C)(C)C)c1`
2.5

----------
# Tested on: hiPSC-CMs (iCell-Cardiomyocytes^2)
# experimental-setup: 1 µM, 96h
Listing of entries alongside the reported Beating below threshold, number of observations/total well numbers.

{"molecule": "N=C(N)c1ccc(OCCCCCOc2ccc(C(=N)N)cc2)cc1", "obs-value": "0/6"}
{"molecule": "CC(C)(Sc1cc(C(C)(C)C)c(O)c(C(C)(C)C)c1)Sc1cc(C(C)(C)C)c(O)c(C(C)(C)C)c1", "obs-value": "0/4"}
{"molecule": "Cc1cn(-c2cc(NC(=O)c3ccc(C)c(Nc4nccc(-c5cccnc5)n4)c3)cc(C(F)(F)F)c2)cn1", "obs-value": "0/5"}
{"molecule": "COc1cccc2c1C(=O)c1c(O)c3c(c(O)c1C2=O)C[C@@](O)(C(=O)CO)C[C@@H]3O[C@H]1C[C@H](N)[C@H](O)[C@H](C)O1", "obs-value": "0/5"}
{"molecule": "COc1nc(N)nc2c1ncn2[C@@H]1O[C@H](COP(=O)(N[C@@H](C)C(=O)OCC(C)(C)C)Oc2cccc3ccccc23)[C@@H](O)[C@@]1(C)O (stereo partly shown)", "obs-value": "0/5"}

Indicate the recorded Beating below threshold, number of observations/total well numbers value for this molecule: `C#Cc1cccc(Nc2ncnc3cc(OCCOC)c(OCCOC)cc23)c1`
0/5

Indicate the recorded Beating below threshold, number of observations/total well numbers value for this molecule: `COc1cc2c(Nc3ccc(Br)cc3F)ncnc2cc1OCC1CCN(C)CC1`
0/5
